Source listed as patent US7786141B2.

Target: M4 muscarinic receptor (Homo sapiens, UniProt P08173)
Construct: expressed in transfected cells; host or cells: CHO (M4-CHO)
Sequence (P08173 whole entry): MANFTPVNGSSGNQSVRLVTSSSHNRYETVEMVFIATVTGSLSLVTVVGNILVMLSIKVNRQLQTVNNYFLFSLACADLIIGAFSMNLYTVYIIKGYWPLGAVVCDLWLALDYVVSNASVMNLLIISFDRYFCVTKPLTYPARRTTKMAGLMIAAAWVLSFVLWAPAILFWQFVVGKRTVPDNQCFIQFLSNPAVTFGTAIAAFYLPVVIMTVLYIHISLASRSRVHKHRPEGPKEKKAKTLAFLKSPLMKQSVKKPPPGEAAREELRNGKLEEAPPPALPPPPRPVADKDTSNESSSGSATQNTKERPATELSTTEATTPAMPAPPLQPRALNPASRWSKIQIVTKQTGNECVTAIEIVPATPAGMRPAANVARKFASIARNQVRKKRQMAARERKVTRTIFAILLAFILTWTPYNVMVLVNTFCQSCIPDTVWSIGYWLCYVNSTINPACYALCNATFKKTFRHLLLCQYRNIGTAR
Experiment: Functional mobilization of intracellular calcium (FLIPR) in M4-CHO cells
Format: cell-based
Settings: M4-CHO cells, calcium mobilization (FLIPR)

{"compound": "CC(=O)N1CC2(CCN(C3CCCC(C(F)(F)F)C3)CC2)c2cc(F)ccc21 (stereo not shown)", "EC50": "> 1000 nM"}
{"compound": "Fc1ccc2c(c1)C1(CCN(C[C@@H]3C[C@H]4CC[C@H]3O4)CC1)CN2", "EC50": "> 1000 nM"}
{"compound": "CCOC(=O)N1CCC(CN2CCC3(CCc4ccccc43)CC2)CC1", "EC50": "> 1000 nM"}
{"compound": "CC(=O)N1CC2(CCN(C3CCCCC3)CC2)c2cc(F)ccc21", "EC50": "100 to 1000 nM"}
{"compound": "CCOC(=O)N1CCC(N2CCC3(CC2)CN(C(=O)c2ccc4c(c2)OCO4)c2ccc(F)cc23)CC1", "EC50": "> 1000 nM"}
{"compound": "CC(=O)N1CC2(CCN(C3CCN(C(=O)OCCF)C3)CC2)c2cc(F)ccc21 (stereo not shown)", "EC50": "100 to 1000 nM"}
{"compound": "CC(=O)CN1CC2(CCN(C[C@@H]3C[C@H]4C=C[C@H]3C4)CC2)c2cc(F)ccc21", "EC50": "> 1000 nM"}
{"compound": "CCOC(=O)N1CCC(N2CCC3(CC2)CN(C(=O)OCC)c2ccc(F)cc23)CC1", "EC50": "> 1000 nM"}
{"compound": "CCOC(=O)N1CCC(N2CCC3(CC2)CN(C(C)=O)c2ccc(F)cc23)CC1", "EC50": "100 to 1000 nM"}
{"compound": "CC(C)OC(=O)N1C2CCC1CC(N1CCC3(CC1)CN(C(=O)O[C@@H]1CCOC1)c1ccc(F)cc13)C2 (stereo partly shown)", "EC50": "> 1000 nM"}
{"compound": "CCOC(=O)N1CCC(N2CCC3(CC2)CN(C(C)=O)c2ccc(C4=CCCC4)cc23)CC1", "EC50": "> 1000 nM"}
{"compound": "Fc1ccc2c(c1)C1(CCN(C3CC4CCC3C4)CC1)CN2 (stereo not shown)", "EC50": "> 1000 nM"}
{"compound": "CC(=O)N[C@H]1CC2(CCN(CC3CCN(C(=O)OC(C)C)CC3)CC2)c2ccccc21", "EC50": "100 to 1000 nM"}
{"compound": "CCOC(=O)N1CCC(N2CCC3(CC2)CN(C(C)=O)c2ccc(-c4ccc(C(N)=O)cc4)cc23)CC1", "EC50": "> 1000 nM"}
{"compound": "Cc1ccc2c(c1)C1(CCN(CC3CC4CCC3C4)CC1)CN2C(=O)OC(C)(C)C (stereo not shown)", "EC50": "> 1000 nM"}
{"compound": "Cc1ccc2c(c1)C1(CCN(C3CC4CCC(C4)C3)CC1)CN2 (stereo not shown)", "EC50": "> 1000 nM"}

###

A collection of compounds and their measured Emax
Molecular target: M1 muscarinic receptor (Homo sapiens, UniProt P11229)
Construct: expressed in transfected cells; host or cells: CHO (M1-CHO)
Sequence (P11229 1-460): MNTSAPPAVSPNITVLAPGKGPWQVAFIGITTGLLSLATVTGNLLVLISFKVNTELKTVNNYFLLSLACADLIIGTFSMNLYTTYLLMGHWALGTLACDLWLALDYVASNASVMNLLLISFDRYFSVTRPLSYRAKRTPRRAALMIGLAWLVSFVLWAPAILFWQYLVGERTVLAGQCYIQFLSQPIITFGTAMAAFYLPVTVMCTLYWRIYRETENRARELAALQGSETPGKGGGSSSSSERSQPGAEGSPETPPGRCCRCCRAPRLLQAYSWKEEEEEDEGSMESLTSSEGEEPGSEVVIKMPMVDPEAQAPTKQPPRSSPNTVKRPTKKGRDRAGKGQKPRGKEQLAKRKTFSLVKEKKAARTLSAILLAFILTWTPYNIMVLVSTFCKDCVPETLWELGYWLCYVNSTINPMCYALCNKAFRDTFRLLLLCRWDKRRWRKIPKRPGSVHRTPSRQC
Assay: Functional mobilization of intracellular calcium (FLIPR) in M1-CHO cells
Format: cell-based
Conditions: Table 4; 100% efficacy is the maximum response obtained with the Carbachol control

{"compound": "CCOC(=O)N1CCC(N2CCC3(CC2)CN(C(C)=O)c2ccc(C(F)(F)F)cc23)CC1", "Emax": "25 to 100%"}
{"compound": "CCOC(=O)N1CCC(N2CCC3(CC2)CN(C(=O)C2(O)CC2)c2ccc(F)cc23)CC1", "Emax": "> 100%"}
{"compound": "O=C(N[C@H]1CC2(CCN(C3CCCCC3)CC2)c2ccccc21)N1CCCC1", "Emax": "< 25%"}
{"compound": "COc1cc2c(cc1OC)C1(CCN(C3CCCCCC3)CC1)C[C@@H]2NC(C)=O", "Emax": "< 25%"}
{"compound": "CCOC(=O)N1CCC(N2CCC3(CC2)CN(c2cncnc2)c2ccccc23)CC1", "Emax": "25 to 100%"}
{"compound": "CCO/N=C1\\CC2(CCN([C@@H]3C[C@@H]4CC[C@@H]3C4)CC2)c2cc(Cl)ccc21", "Emax": "25 to 100%"}
{"compound": "CCOC(=O)N1C2CCC1CC(N1CCC3(CC1)CN(C(C)=O)c1c(C)cc(C)cc13)C2 (centres unmarked)", "Emax": "25 to 100%"}
{"compound": "CCOC(=O)N1CCC(N2CCC3(CC2)CN(C(=O)N(CC)CC)c2ccccc23)CC1", "Emax": "25 to 100%"}
{"compound": "CN(C)C(=O)N1CC2(CCN(C3CCN(c4ccncc4)CC3)CC2)c2cc(F)ccc21", "Emax": "< 25%"}
{"compound": "CCC#CCOC(=O)N1CCC(N2CCC3(CC2)CN(C(C)=O)c2ccccc23)CC1", "Emax": "25 to 100%"}
{"compound": "CCOC(=O)N1CCC(N2CCC3(CC2)CN(C(=O)N2CCCCC2)c2ccc(F)cc23)CC1", "Emax": "25 to 100%"}
{"compound": "CCOC(=O)N1CCC(N2CCC3(CC2)CN(c2cccnc2)c2ccc(F)cc23)CC1", "Emax": "25 to 100%"}
{"compound": "O=C1CC2(CCN(CC3CCCCC3)C2)c2ccc(F)cc21 (centres unmarked)", "Emax": "< 25%"}
{"compound": "CCCCOC(=O)N1C2CCC1CC(N1CCC3(CC1)CN(C(C)=O)c1ccccc13)C2 (centres unmarked)", "Emax": "< 25%"}
{"compound": "CC(=O)NC1CCC2(CCN(CCC3CCOCC3)CC2)c2ccccc21 (centres unmarked)", "Emax": "25 to 100%"}
{"compound": "CCOC(=O)N1CCC(N2CCC3(CC2)CN(C(=O)CCOC)c2ccc(F)cc23)CC1", "Emax": "> 100%"}
{"compound": "CC(=O)N1CC2(CCN(C[C@H]3CCN(C(=O)OCC(F)F)C3)CC2)c2ccccc21", "Emax": "25 to 100%"}
{"compound": "CC(=O)N1CC2(CCN(C3CCN(c4cnc(C)c(C)n4)CC3)CC2)c2ccccc21", "Emax": "25 to 100%"}
{"compound": "CC(=O)N[C@H]1CCC2(CCN(CCC3CCN(C(=O)OC(C)(C)C)CC3)CC2)c2ccccc21", "Emax": "< 25%"}
{"compound": "CC(=O)N1CC2(CCN(C3CCN(C(=O)O[C@H]4CCOC4)CC3)CC2)c2ccccc21", "Emax": "25 to 100%"}
{"compound": "CC(=O)N1CC2(CCN(C3CCN(c4cncc(C5=CCCC5)n4)CC3)CC2)c2ccccc21", "Emax": "< 25%"}
{"compound": "CN(C)C(=O)N[C@H]1CCC2(CCN(C3CC4CCC(C4)C3)CC2)c2ccccc21 (some centres unmarked)", "Emax": "25 to 100%"}
{"compound": "O=C(N[C@H]1CCC2(CCN(C3CC4CCC(C4)C3)CC2)c2ccccc21)C1CC1 (some centres unmarked)", "Emax": "25 to 100%"}
{"compound": "CCOC(=O)N1CCC(N2CCC3(CC2)CN(c2ccc(OC)cc2)c2ccc(F)cc23)CC1", "Emax": "25 to 100%"}
{"compound": "CCOC(=O)N1CCC(N2CCC3(CC2)CN(C2CCCC2=O)c2ccc(F)cc23)CC1 (centres unmarked)", "Emax": "25 to 100%"}
{"compound": "CCOC(=O)N1CCC(N2CCC3(CC2)CN(C(C)=O)c2c(-c4ccc(OC)cc4)cccc23)CC1", "Emax": "25 to 100%"}
{"compound": "CC(=O)N[C@H]1CC2(CCN(C3CCN(C)CC3)CC2)c2ccccc21", "Emax": "< 25%"}
{"compound": "CCC(C)C(=O)N1C2CCC1CC(N1CCC3(CC1)CN(C(C)=O)c1ccccc13)C2 (centres unmarked)", "Emax": "< 25%"}
{"compound": "O=C(N[C@H]1CC2(CCN([C@@H]3C[C@H]4CC[C@@H]3C4)CC2)c2ccccc21)N1CCCC1", "Emax": "< 25%"}
{"compound": "CCOC(=O)N1CCC(N2CCC3(CC2)CC(=O)c2cc(C)ccc23)CC1", "Emax": "25 to 100%"}
{"compound": "COCCN1CC2(CCN(C3CCN(C(=O)OC(C)C)CC3)CC2)c2cc(F)ccc21", "Emax": "25 to 100%"}
{"compound": "CC(=O)N[C@H]1CCC2(CCN(C3CCCCCC3)CC2)c2ccccc21", "Emax": "25 to 100%"}
